method: cytotoxicity in Drosophila DL1 cells
Format: cell-based
study-conditions: Drosophila, DL1 cells (embryonic macrophage-derived), DL1 cells, 10 µM, replicate 1, relative to DMSO 1%; read-out: % viability, viability 1
Exercise: state measured viability at 10 µM for each of the compounds provided.
# do not omit the unit; it follows the number

- compound: "C=C1CC[C@H]2[C@]3(C)C[C@@H](C=C(C)C)O[C@H]3CC[C@]2(C)[C@@H]1Cc1c(O)c(C)c(C)oc1=O"
  viability at 10 µM: "3.69%"
- compound: "C=C1CC[C@H]2[C@]3(C)C[C@H](C=C(C)C)O[C@H]3CC[C@]2(C)[C@@H]1Cc1c(O)c(C)c(C)oc1=O"
  viability at 10 µM: "7.18%"
- compound: "C=C1CC[C@H]2[C@]3(C)C[C@H](C=C(C)C)O[C@H]3CC[C@]2(C)[C@@H]1Cc1c(OC)oc(C)c(C)c1=O"
  viability at 10 µM: "7.75%"

Would you mind listing viability at 10 µM for each of the following compounds?
1. C=C1CCC2C(C)(CCC=C(C)C)C(O)CCC2(C)C1Cc1c(O)c(C)c(C)oc1=O (centres unmarked)
2. C=C1CC[C@@H]2[C@](C)(CC[C@H]3O[C@H](C=C(C)C)C[C@@]23C)[C@@H]1Cc1c(OC)oc(CO)c(C)c1=O
3. C=C1CCC2C(C)(CCC=C(C)C)C(O)CCC2(C)C1Cc1c(OC)oc(CO)c(C(=O)OC)c1=O (centres unmarked)
4. C=C1CCC2C(C)(CC(=O)C=C(C)C)C(O)CCC2(C)C1Cc1c(O)c(C)c(C)oc1=O (centres unmarked)
5. C=C1CC[C@@H]2[C@](C)(CC[C@H]3O[C@H](C=C(C)C)C[C@@]23C)[C@@H]1Cc1c(O)c(C)c(C)oc1=O

1: 20.4%; 2: 20.5%; 3: 7.19%; 4: 36.5%; 5: 7.6%
